# Assay target: juvenile hormone esterase (Trichoplusia ni)
# Procedure text: In vitro inhibition of Trichoplusia Juvenile Hormone Esterase.
pIC50: −log10 of the molar value.
Criterion: pIC50 meeting or surpassing 5. Met: Yes. Not met: No.

| Compound | Assigned class |
| --- | --- |
| CCCCCC[Se](=O)CC(=O)C(F)(F)F (configuration not stated) | Yes |
| CCCCCCC#CC(=O)C(F)(F)F | Yes |
| CCCCCCOCC(=O)C(F)(F)F | Yes |
| CCCCCCC=CC(=O)C(F)(F)F | No |
| CCCCCCCCC(=O)C(F)(F)F | Yes |
| CCCCCCOCC(C)=O | No |
